assay text: CMV-Luciferase Counterscreen for Inhibitors of ATXN expression; further: nearly all actives have a fitted effect of over 55% in size
applied conditions: HEK-293 CMV-luciferase reporter, luminescence, 24 h; series mostly up to 57.5 µM
In all, about 2,100 compounds went through this assay and about 670 (32%) were called active. Roughly 50% stayed inconclusive and do not appear here. The call rests on the fitted dose curve; in most records, active means well fitted inhibition curve with a large enough effect; inconclusive means small, poorly fitted or top-dose-only effect; inactive means no such curve, though single readings can be large or run the other way. The list shows a part of the results.
Outcomes: active, inactive

COc1ccccc1NCC(=O)N/N=C/c1c(O)ccc2ccccc12: active
CC(=O)Nc1cc(-c2ccc(C(=O)NC3CC3)cc2)cn2c(-c3cccc(C(C)=O)c3)cnc12: inactive
O=C(Nc1ccc(Cl)cc1)Nc1ccc(N2CCCC2)c(S(=O)(=O)Nc2ccccc2Cl)c1: active
O=C(CCCN1C(=O)/C(=C/c2ccccc2Cl)SC1=S)NNC(=O)c1ccc(Cl)cc1: active
CC(NC1=CC(=O)c2cccnc2C1=O)C(O)c1ccccc1 (stereo unspecified): active
O=C(N/N=C/c1cc(Br)ccc1OC(=O)c1ccc(Br)cc1)c1ccncc1: active
O=C(N/N=C/c1cc(Br)ccc1O)C(c1ccncc1)N1CCOCC1 (stereo unspecified): active
CCCCN(C=O)c1c(CC)nc2ccc(C(=O)Nc3cc(-c4ccccc4)ccc3OC)cn12: active
CCc1cc(-c2nnn(CCC3COCCO3)c2CC)ccc1-c1cn(CCc2c[nH]c3ccccc23)nn1 (stereo unspecified): active
Cn1c(=O)c(C#N)c(-c2ccc(F)cc2)c2cc(C(=O)c3cc(Cl)cc(Cl)c3O)cnc21: active
Cc1cc(N2CCN(Cc3nc(-c4ccc(Cl)cc4)oc3C)CC2)cc(C)n1: active
COc1ccc(-c2nc(NC(=O)C3CC(=O)N(c4ccc5c(c4)OCCO5)C3)sc2C)cc1 (stereo unspecified): active
Cc1cc(/C=N/n2cnnc2)c(C)n1-c1ccc(OCc2ccc(Cl)cc2Cl)cc1: active
O=C1c2cccc3cc([N+](=O)[O-])cc(c23)C(=O)N1CCN1CCCC1: active
Cc1ccccc1C(=O)N1CCN(c2ccc(NC(=O)c3ccco3)cc2Cl)CC1: active
Cc1cccc2sc(NNC(=O)c3ccc(S(=O)(=O)N4CCCC(C)C4)cc3)nc12 (stereo unspecified): active

This collection of values is drawn from PubChem BioAssay AID1745847.
